Values compiled from patent US12662479B2.

biological target: HiBit-BRG1 fusion protein (Homo sapiens); construct: expressed in transfected cells; assay: HiBiT-BRG1 cell-based degradation assay (Nano-Glo HiBiT Lytic Detection, 24 h); conditions: HeLa, HeLa cells expressing HiBit-BRG1 and LgBit, top dose 30 μM, read-out: BRG1 HiBit Degradation Maximum measured
Sequence (P51532 whole entry, the tested form may be a part): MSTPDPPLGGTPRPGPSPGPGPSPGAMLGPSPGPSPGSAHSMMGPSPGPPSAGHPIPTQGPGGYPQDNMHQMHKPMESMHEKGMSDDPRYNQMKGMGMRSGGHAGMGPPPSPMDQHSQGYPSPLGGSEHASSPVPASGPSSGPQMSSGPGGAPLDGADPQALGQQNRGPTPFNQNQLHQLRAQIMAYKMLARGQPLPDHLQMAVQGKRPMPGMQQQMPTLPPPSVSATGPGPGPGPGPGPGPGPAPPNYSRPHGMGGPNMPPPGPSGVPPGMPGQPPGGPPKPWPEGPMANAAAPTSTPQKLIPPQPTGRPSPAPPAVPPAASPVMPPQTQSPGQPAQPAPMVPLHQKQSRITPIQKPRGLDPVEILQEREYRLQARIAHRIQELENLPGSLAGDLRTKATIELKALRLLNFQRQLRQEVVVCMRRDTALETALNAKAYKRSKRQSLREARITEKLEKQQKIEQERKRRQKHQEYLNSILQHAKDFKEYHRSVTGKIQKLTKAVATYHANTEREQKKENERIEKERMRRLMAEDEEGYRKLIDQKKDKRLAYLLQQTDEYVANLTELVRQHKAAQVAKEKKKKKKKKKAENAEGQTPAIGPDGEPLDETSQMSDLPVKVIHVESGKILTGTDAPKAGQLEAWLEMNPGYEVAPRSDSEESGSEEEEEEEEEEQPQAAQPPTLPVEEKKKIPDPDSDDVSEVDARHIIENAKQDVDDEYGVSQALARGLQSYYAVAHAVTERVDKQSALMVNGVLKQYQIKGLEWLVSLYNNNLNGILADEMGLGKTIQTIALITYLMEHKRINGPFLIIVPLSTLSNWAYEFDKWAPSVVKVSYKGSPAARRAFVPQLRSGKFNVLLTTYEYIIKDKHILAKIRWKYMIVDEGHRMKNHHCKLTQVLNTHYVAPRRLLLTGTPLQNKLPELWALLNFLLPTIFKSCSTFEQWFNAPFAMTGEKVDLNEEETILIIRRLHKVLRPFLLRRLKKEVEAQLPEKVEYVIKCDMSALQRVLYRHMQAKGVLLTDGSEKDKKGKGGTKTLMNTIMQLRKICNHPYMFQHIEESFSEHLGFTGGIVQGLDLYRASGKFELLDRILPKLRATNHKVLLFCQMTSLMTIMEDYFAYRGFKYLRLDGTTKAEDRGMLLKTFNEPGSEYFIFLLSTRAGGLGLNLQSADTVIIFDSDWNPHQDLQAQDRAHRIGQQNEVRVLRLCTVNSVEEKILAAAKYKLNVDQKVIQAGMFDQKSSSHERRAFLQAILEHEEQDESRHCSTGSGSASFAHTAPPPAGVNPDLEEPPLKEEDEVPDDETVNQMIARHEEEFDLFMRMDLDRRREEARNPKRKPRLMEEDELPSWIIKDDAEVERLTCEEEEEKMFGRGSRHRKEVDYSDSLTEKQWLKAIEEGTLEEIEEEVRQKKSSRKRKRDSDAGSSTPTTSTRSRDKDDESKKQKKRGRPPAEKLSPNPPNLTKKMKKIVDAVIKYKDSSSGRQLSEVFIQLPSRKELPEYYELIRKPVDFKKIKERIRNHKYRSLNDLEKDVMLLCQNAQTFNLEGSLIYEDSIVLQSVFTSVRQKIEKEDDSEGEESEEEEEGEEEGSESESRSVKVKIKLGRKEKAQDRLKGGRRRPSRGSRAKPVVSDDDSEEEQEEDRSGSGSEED
Would you kindly list Dmax for each of these compounds?

Exercise: Recall the recorded Dmax for Cc1ncsc1-c1ccc(CNC(=O)C2CC(O)CN2C(=O)C(NC(=O)CCCCCCCNC(=O)c2ccc(COCC(NC(=O)c3ccn(S(C)(=O)=O)c3)C(=O)Nc3nc(-c4ccccc4)cs3)cc2)C(C)(C)C)cc1 (stereo not shown) [Compound 174] with HiBit-BRG1 fusion protein (Homo sapiens) and state it.
Solution: 50 to 75%

Exercise: Same question, CS(=O)(=O)n1ccc(C(=O)N[C@@H](COCCCC(=O)NCCNc2ccc3c(c2)C(=O)N(C2CCC(=O)NC2=O)C3=O)C(=O)Nc2nc(-c3ccccc3)cs2)c1 (stereo partly shown) [Compound 185] this time
Solution: < 50%

Exercise: Same question, CS(=O)(=O)n1ccc(C(=O)N[C@@H](CCOCCCC(=O)NCCOc2ccc3c(c2)C(=O)N(C2CCC(=O)NC2=O)C3=O)C(=O)Nc2nc(-c3ccccc3)cs2)c1 (stereo partly shown) [Compound 280] this time
Solution: < 50%

Exercise: Same question, CS(=O)(=O)n1ccc(C(=O)NCC(=O)Nc2nc(-c3cccc(-c4cccc(CNC(=O)CCCCCCCCCCNc5cccc6c5C(=O)N(C5CCC(=O)NC5=O)C6=O)c4)c3)cs2)c1 (stereo not shown) [Compound 51] this time
Solution: 50 to 75%

Exercise: Same question, CS(=O)(=O)n1ccc(C(=O)NCC(=O)Nc2nc(-c3cccc(-c4cccc(CNC(=O)CCCCCCCCNc5cccc6c5C(=O)N(C5CCC(=O)NC5=O)C6=O)c4)c3)cs2)c1 (stereo not shown) [Compound 20] this time
Solution: 50 to 75%

Exercise: Same question, CS(=O)(=O)n1ccc(C(=O)NCC(=O)Nc2nc(-c3cccc(-c4ccnc(OCCNC(=O)C5CC5CNC(=O)COc5cccc6c5C(=O)N(C5CCC(=O)NC5=O)C6=O)c4)c3)cs2)c1 (stereo not shown) [Compound 37] this time
Solution: < 50%

Exercise: Same question, Cc1c(C(=O)NCC(=O)Nc2nc(-c3cccc(-c4ccnc(N(C)CC(=O)NCCCCCCCCNC(=O)COc5cccc6c5C(=O)N(C5CCC(=O)NC5=O)C6=O)c4)c3)cs2)cn(S(C)(=O)=O)c1C (stereo not shown) [Compound 41] this time
Solution: < 50%

Exercise: Same question, Cc1ncsc1-c1ccc(CNC(=O)[C@@H]2C[C@@H](O)CN2C(=O)[C@@H](NC(=O)CCCCCCCNC(=O)CCCOC[C@H](NC(=O)c2ccn(S(C)(=O)=O)c2)C(=O)Nc2nc(-c3ccccc3)cs2)C(C)(C)C)cc1 [Compound 227] this time
Solution: < 50%

Exercise: Same question, CN(CC(=O)NCCCCCNc1ccc2c(c1)C(=O)N(C1CCC(=O)NC1=O)C2=O)c1cc(-c2cccc(-c3csc(NC(=O)CNC(=O)c4ccn(S(C)(=O)=O)c4)n3)c2)ccn1 (stereo not shown) [Compound 60] this time
Solution: < 50%

Exercise: Same question, Cc1ncsc1-c1ccc(CNC(=O)[C@@H]2C[C@@H](O)CN2C(=O)[C@@H](NC(=O)CCCC(=O)NCCOc2cc(-c3cccc(-c4csc(NC(=O)CNC(=O)c5ccn(S(C)(=O)=O)c5)n4)c3)ccn2)C(C)(C)C)cc1 [Compound 77] this time
Solution: < 50%
